Hey, just so you know, these numbers are from paper PMC8235661.

Experiment: In vivo pharmacokinetics, intravenous administration
Design: species or system rat
Conditions: male, Sprague Dawley, rat, plasma; intravenous 1 mg/kg body weight, rats
Value Kind: half-life

>>> observed_value("CCCCN(CCCC)c1ccc(C=Cc2sc3ccccc3[n+]2CC(=O)O)cc1.[Br-]")
"21 min"

----------
Assay: In vivo pharmacokinetics, oral administration
Design: species or system rat
Settings: male, Wistar, rat, plasma, po, 10 mg/kg, oral 10 mg/kg, 0.5 h, single rat
Value Kind: concentration at 0.5 h (nM)

>>> observed_value("CCCCN(CCCC)c1ccc(C=Cc2sc3ccccc3[n+]2CC(=O)O)cc1.[Br-]")
1.51

----------
Test: In vivo pharmacokinetics, oral administration
Set-up: species or system rat
Settings: male, Wistar, rat, plasma, oral, 100 mg/kg; read-out: absolute bioavailability
Value Kind: bioavailability

>>> observed_value("CCCCN(CCCC)c1ccc(C=Cc2sc3ccccc3[n+]2CC(=O)O)cc1.[Br-] [NK-5962]")
"< 1%"

----------
Test: In vivo pharmacokinetics, oral administration
Design: species or system rat
Conditions: male, Wistar, eye ball / plasma; oral 10 mg/kg, 8 h, single rat; read-out: Eye Ball/Plasma Ratio(Kp)
Value Kind: Kp at 8 h

>>> observed_value("CCCCN(CCCC)c1ccc(C=Cc2sc3ccccc3[n+]2CC(=O)O)cc1.[Br-] [NK-5962]")
"< 0.059"

----------
Assay: In vivo pharmacokinetics, intravenous administration
Parameters: species or system rat
Conditions: male, Sprague Dawley, rat, plasma, iv, 1 mg/kg, intravenous 1 mg/kg, 2 h, single rat; read-out: Plasma Concentration
Value Kind: concentration at 2 h (nM)

>>> observed_value("CCCCN(CCCC)c1ccc(C=Cc2sc3ccccc3[n+]2CC(=O)O)cc1.[Br-] [NK-5962]")
24.3

----------
Test: Eye ball concentration after intravitreous injection
Type: in vivo, rat
Conditions: Wistar, rat, eye ball, other: intravitreous injection, intravitreous 16 µM (3 µL), 2 h, single eye; read-out: Eye Ball Concentration
Value Kind: concentration at 2 h (nM)

>>> observed_value("CCCCN(CCCC)c1ccc(C=Cc2sc3ccccc3[n+]2CC(=O)O)cc1.[Br-]")
1.19

----------
Assay: PAMPA (parallel artificial membrane permeability assay)
Format: in vitro ADME
Details: PAMPA, pH 6.5; 0.2 μM test compound, 37 °C, 4 h
Value Kind: Papp at 4 h, 0.2 μM (×10⁻⁶ cm/s)

>>> observed_value("CCCCN(CCCC)c1ccc(C=Cc2sc3ccccc3[n+]2CC(=O)O)cc1.[Br-]")
0.31

----------
Assay: In vivo pharmacokinetics, oral administration
Design: species or system rat
Conditions: male, Wistar, rat, plasma, po, 100 mg/kg, oral 100 mg/kg, 0.25 h, single rat
Value Kind: concentration at 0.25 h (nM)

>>> observed_value("CCCCN(CCCC)c1ccc(C=Cc2sc3ccccc3[n+]2CC(=O)O)cc1.[Br-]")
11.7
